# Assayed Target: Protein-tyrosine kinase 2-beta (Homo sapiens);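 also: reported as mean percent inhibition of PYK2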
# Run Conditions: at 0.1 µM
Entries annotated with measured inhibition

>  <Smiles Code>
COc1cccc(-n2ncc3c(N/N=C/c4ccc(S(C)(=O)=O)cc4)ncnc32)c1

>  <inhibition / %>
3.04

$$$$
>  <Smiles Code>
COc1cc2ncn(-c3cc(OCc4ccccc4S(C)(=O)=O)c(C#N)s3)c2cc1OC

>  <inhibition / %>
12

$$$$
>  <Smiles Code>
CCS(=O)(=O)c1ccc(OC)c(Nc2ncc(-c3cccc(OC)c3)o2)c1

>  <inhibition / %>
6.52

$$$$
>  <Smiles Code>
Cc1ccc(Nc2ccnc(Nc3cccc(C(N)=O)c3)n2)cc1O

>  <inhibition / %>
9.71

$$$$
>  <Smiles Code>
COc1cc(/C=N/Nc2ncnc3c2cnn3C(C)C)ccc1O

>  <inhibition / %>
8.31

$$$$
>  <Smiles Code>
CS(=O)(=O)CCNCc1nc(-c2ccc3ncnc(Nc4ccc(OCc5cccc(C(F)(F)F)c5)cc4)c3c2)cs1

>  <inhibition / %>
-1.25

$$$$
>  <Smiles Code>
NS(=O)(=O)c1cccc(Nc2cc(-c3ccc(F)cc3)n[nH]2)c1

>  <inhibition / %>
7.64

$$$$
>  <Smiles Code>
OCc1ccc(-c2nc(-c3ccccn3)c(-c3ccc4c(c3)OCO4)[nH]2)cc1

>  <inhibition / %>
12

$$$$
>  <Smiles Code>
Nc1ccc(C#Cc2cncnc2Nc2ccc(OCc3cccc(F)c3)c(Cl)c2)cc1

>  <inhibition / %>
-4.77

$$$$
>  <Smiles Code>
COC(=O)c1ccc2c(c1)C(=Cc1cc(Br)c(O)c(Br)c1)C(=O)N2

>  <inhibition / %>
3.82

$$$$
